METHOD_SUMMARY: AUC in dog at 5 mg/kg, iv
Type: ADME, organism-based, Canis lupus familiaris
Set-up: dose 5 mg/kg, route intravenous
CONDITION_DETAILS: plasma
OBSERVABLE: AUC (ng·h/mL)
Give bare numbers, in ng·h/mL.

What the record says about "CC(C)C[C@H](NC(=O)CCN(C)C)c1cc(Cl)ccc1N1CCN(C(=O)[C@H](C)Cc2ccc(Cl)cc2)CC1" : AUC is 2510

---

METHOD_SUMMARY: Tmax in Sprague-Dawley rat at 2.5 mg/kg, iv and 10 mg/kg, po
Assay type: ADME, organism-based
CONDITION_DETAILS: in vivo
OBSERVABLE: Tmax
Please don't drop the unit; write it after the number.

Reported Tmax ( "Cc1ccc([C@@H](CC(C)C)NC(=O)CCN(C)C)c(N2CCN(C(=O)[C@H](C)Cc3ccc(Cl)cc3Cl)CC2)n1" ) = 2 h

---

Kindly supply the reported AUC values for the records listed here.
METHOD_SUMMARY: AUC in Sprague-Dawley rat at 10 mg/kg, po
Assay type: ADME, organism-based
Parameters: dose 10 mg/kg, route oral
CONDITION_DETAILS: plasma
Numbers only, in ng·h/mL.

Below are 4 compounds. Give each one its AUC.
1. Cc1ccc(N2CCN(C(=O)[C@H](C)Cc3ccc(Cl)cc3)CC2)c([C@H](CC(C)C)NC(=O)CCN(C)C)c1
2. Cc1ccc(N2CCN(C(=O)[C@@H](Cc3ccc(Cl)cc3Cl)N3CCCC3=O)CC2)c([C@H](CC(C)C)NC(=O)CCN(C)C)c1
3. Cc1ccc([C@@H](CC(C)C)NC(=O)CCN(C)C)c(N2CCN(C(=O)[C@H](C)Cc3ccc(Cl)cc3Cl)CC2)n1
4. CC(C)C[C@H](NC(=O)CCN(C)C)c1cc(Cl)ccc1N1CCN(C(=O)[C@H](C)Cc2ccc(Cl)cc2)CC1

Key:
1: 2360; 2: 393; 3: 517; 4: 1870

---

For each of the compounds below, state its bioavailability.
METHOD_SUMMARY: Bioavailability in CD1 mouse at 10 mg/kg, po
Assay type: ADME, organism-based
CONDITION_DETAILS: in vivo
Please format your answer as a value with the unit trailing.

CC(C)C[C@H](NC(=O)CCN(C)C)c1cc(Cl)ccc1N1CCN(C(=O)[C@H](C)Cc2ccc(Cl)cc2)CC1: 23%

The measured bioavailability associated with "CC(C)C[C@@H](NC(=O)CN)c1cccnc1N1CCN(C(=O)[C@H](C)Cc2ccc(Cl)cc2Cl)CC1" reads 12.6%
